System Under Test: UniProt:P56696
Sequence (P56696 whole entry): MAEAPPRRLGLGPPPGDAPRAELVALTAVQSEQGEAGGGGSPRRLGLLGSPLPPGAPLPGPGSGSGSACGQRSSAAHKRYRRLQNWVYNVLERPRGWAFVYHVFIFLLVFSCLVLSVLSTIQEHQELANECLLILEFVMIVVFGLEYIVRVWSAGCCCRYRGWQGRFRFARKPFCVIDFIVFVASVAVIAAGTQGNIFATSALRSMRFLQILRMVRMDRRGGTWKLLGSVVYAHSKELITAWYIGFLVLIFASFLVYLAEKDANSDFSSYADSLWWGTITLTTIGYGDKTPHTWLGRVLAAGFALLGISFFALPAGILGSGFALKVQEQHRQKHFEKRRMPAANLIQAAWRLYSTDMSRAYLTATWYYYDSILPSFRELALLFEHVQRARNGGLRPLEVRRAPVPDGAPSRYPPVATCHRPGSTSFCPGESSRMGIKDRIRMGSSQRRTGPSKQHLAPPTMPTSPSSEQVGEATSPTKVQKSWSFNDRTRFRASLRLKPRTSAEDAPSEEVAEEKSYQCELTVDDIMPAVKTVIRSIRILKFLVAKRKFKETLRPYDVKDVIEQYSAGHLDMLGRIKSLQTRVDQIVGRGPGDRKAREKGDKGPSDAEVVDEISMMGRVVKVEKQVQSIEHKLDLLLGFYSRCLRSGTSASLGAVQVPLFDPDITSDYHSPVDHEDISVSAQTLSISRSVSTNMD
Experimental Details: Activation of human homomeric KCNQ4 expressed in CHOK1 cells at -10 mV by whole cell patch clamp assay
Format: cell-based
pEC50: −log10 of the molar value.
Measured Metric: pEC50

1) C#CCN(Cc1ccc(F)cc1)c1ccc(NC(=O)OCC)c(NC(=O)OCC)c1; 6.05
